value_type: log10 vapour pressure (mmHg)
Output spec: single numeric token, no unit.

C=C(Br)CBr | 0.88
CN=C(O)/C(=N/OC)c1ccccc1Oc1ccccc1 | -6.87
Cc1cccc(C)c1N | -0.886
CC1=CCC2CC1C2(C)C (configuration not stated) | 0.677
CN(C)O | 1.33

Please look at this compound and report its log10 vapour pressure (mmHg): CC(C)CC(C)C(C)C (configuration not stated) 1.07

Please look at this compound and report its log10 vapour pressure (mmHg): Clc1ccc2c(c1)Oc1cc(Cl)ccc1O2 -5.98

Please look at this compound and report its log10 vapour pressure (mmHg): Clc1cc(Cl)c(-c2cc(Cl)c(Cl)cc2Cl)cc1Cl -5.46

* * *

Okay, here is how we bin by melting point: 1 (below 30 °C), 2 (30 °C to below 70 °C), 3 (70 °C or more)

Previously resolved entries follow.
CCCCCCCCCCCCCCCC[N+](C)(C)CC.[Br-] | 3
CC1(C)CCCC(O)C1 (configuration not stated) | 1
COc1ccc(C)cc1N | 2

Which class is correct for the following compound? CCN(CC)C(=O)C(Cl)(Cl)Cl 1

Which class is correct for the following compound? ClC1=C(Cl)C2(Cl)C3C(Cl)C(Cl)CC3C1(Cl)C2(Cl)Cl (configuration not stated) 3

Which class is correct for the following compound? CCCCCCCCCCCCCCCC#N 2

* * *

value_type: melting point (°C)
Numeric only. Scale: °C

CNC(=O)NC(C)=O | 180
CC1(C)CC(=O)NC(=O)C1 | 145
CC1(C)CC[C@]2(C(=O)O)CC[C@]3(C)C(=CC[C@@H]4[C@@]5(C)CC[C@H](O)[C@@](C)(C=O)[C@@H]5CC[C@]43C)[C@@H]2C1 | 275

Please look at this compound and report its melting point: Cc1cccc(N(C)C(=S)Oc2ccc3ccccc3c2)c1 111

Please look at this compound and report its melting point: O=C(O)Cc1ccc(Br)cc1 116

Please look at this compound and report its melting point: FC(F)(F)CBr -93.9

Please look at this compound and report its melting point: N#CCc1ccccc1C(F)(F)F 33

Please look at this compound and report its melting point: Clc1ccc(CSc2ccc(Cl)cc2)cc1 75

* * *

Entry flag: 1 if log10 vapour pressure (mmHg) reaches 1; 0 if it does not.

Previously resolved entries follow.
CNC | 1
CC#N | 1
C=Cc1ccccn1 | 0

Hi, just wondering whether COc1cc(OC)cc(C(=O)O)c1 shows log10 vapour pressure (mmHg) of 1 or higher. 0

* * *

value_type: melting point (°C)
Numeric only. Scale: °C

Field: example entries. Status: answers known.
c1ccc(-c2ccncn2)cc1 | 56
OCc1c(F)c(F)c(F)c(F)c1F | 37.5
CS(=O)(=O)c1ccc(-c2cn3ccccc3n2)cc1 | 243

Please look at this molecule and report its melting point: CC(Cc1ccc(O)c(O)c1)C(C)Cc1ccc(O)c(O)c1 (stereo not drawn) 186

Please look at this molecule and report its melting point: C#C[C@]1(O)CC[C@H]2[C@@H]3CCC4=C(CCC(=O)C4)[C@H]3CC[C@@]21C 170

Please look at this molecule and report its melting point: Cc1cc(O)c(C(C)(C)C)cc1C 46

Please look at this molecule and report its melting point: COC(=O)C1(S(=O)(=O)c2ccccc2)CCC1 108

Please look at this molecule and report its melting point: Clc1ccc(Cc2ccc(Cl)cc2)cc1 55.5

Please look at this molecule and report its melting point: CCCCCCCBr -58

Please look at this molecule and report its melting point: C/C=C/C(=O)OC -42

Please look at this molecule and report its melting point: CCCCC(C)S (stereo not drawn) -147

Please look at this molecule and report its melting point: CC(=O)c1ccc(I)cc1 86

Please look at this molecule and report its melting point: Sc1ccccc1S 28.5

Please look at this molecule and report its melting point: C[C@]12CC[C@@H]3c4ccc(O)cc4CC[C@H]3[C@@H]1CC[C@@H]2O 200

Please look at this molecule and report its melting point: O=C(O)c1ccccc1 122

Please look at this molecule and report its melting point: O=C(OCC(=O)N1CCOCC1)c1ccccc1 104

Please look at this molecule and report its melting point: Fc1cc(F)cc(F)c1 -5.5

Please look at this molecule and report its melting point: Cc1ncc(CO)c(C=O)c1O 165
